system: Escherichia coli TOP10; assay: shrunken log2 fold change of peptide-encoding DNA abundance (4.5 h post-induction vs induction); higher = less antimicrobial activity (less host growth inhibition); settings: time post-induction: 4.5 h; library: site-saturation at positions 5, 18, 19, 20
Decide using shrunken log2 fold change: a value greater than or equal to -0.02 is Condition met, a smaller one is Condition not met.

Below are worked cases with known answers.
RRIRLRPPRLPRPRPRPTFRPRP = Condition met
RRIRFRPPRLPRPRPRPAGVPRP = Condition met

Has RRIRQRPPRLPRPRPRPDPEPRP a recorded shrunken log2 fold change greater than or equal to -0.02?
Condition not met

Has RRIRLRPPRLPRPRPRPWIEPRP a recorded shrunken log2 fold change greater than or equal to -0.02?
Condition met

Has RRIRTRPPRLPRPRPRPMMIPRP a recorded shrunken log2 fold change greater than or equal to -0.02?
Condition met

Has RRIRYRPPRLPRPRPRPQWEPRP a recorded shrunken log2 fold change greater than or equal to -0.02?
Condition met

Has RRIRVRPPRLPRPRPRPGTKPRP a recorded shrunken log2 fold change greater than or equal to -0.02?
Condition met

Has RRIRYRPPRLPRPRPRPLCRPRP a recorded shrunken log2 fold change greater than or equal to -0.02?
Condition not met

* * *

system: Escherichia coli TOP10; assay: shrunken log2 fold change of peptide-encoding DNA abundance (4.5 h post-induction vs induction); higher = less antimicrobial activity (less host growth inhibition); settings: time post-induction: 4.5 h; library: site-saturation at positions 5, 18, 19, 20
measurement-type: shrunken log2 fold change
Reply with just the number.

Worked set:
RRIRYRPPRLPRPRPRPTAWPRP = -0.011
RRIRMRPPRLPRPRPRPMRTPRP = 0.502
RRIRVRPPRLPRPRPRPELTPRP = 0.149
RRIRKRPPRLPRPRPRPPHGPRP = 0.634

Please report the recorded shrunken log2 fold change for RRIRYRPPRLPRPRPRPKTMPRP .
-0.614

Please report the recorded shrunken log2 fold change for RRIRGRPPRLPRPRPRPIHTPRP .
0.0205

Please report the recorded shrunken log2 fold change for RRIRQRPPRLPRPRPRPFIRPRP .
-0.00448

Please report the recorded shrunken log2 fold change for RRIRNRPPRLPRPRPRPPLIPRP .
-0.193

Please report the recorded shrunken log2 fold change for RRIRWRPPRLPRPRPRPSIKPRP .
-0.419

Please report the recorded shrunken log2 fold change for RRIRWRPPRLPRPRPRPLMGPRP .
-0.276

* * *

Property: shrunken log2 fold change; scope: individual sequences
test system: Escherichia coli TOP10; test: shrunken log2 fold change of peptide-encoding DNA abundance (4.5 h post-induction vs induction); higher = less antimicrobial activity (less host growth inhibition); details: time post-induction: 4.5 h; library: site-saturation at positions 5, 18, 19, 20;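 further: peptides expressed intracellularly from a pBAD plasmid library in pooled LB shake-flask culture, induced with 0.3% L-arabinose, DNA abundance read by NGS, three biological replicates, DESeq2 with apeglm shrinkage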
Reply with just the number.

RRIRPRPPRLPRPRPRPVRVPRP = 0.502
RRIRVRPPRLPRPRPRPRIQPRP = -0.196
RRIRSRPPRLPRPRPRPYFCPRP = -0.354

Please report the recorded shrunken log2 fold change for RRIRLRPPRLPRPRPRPKDVPRP .
-0.0185

Please report the recorded shrunken log2 fold change for RRIRGRPPRLPRPRPRPTMMPRP .
0.541

Please report the recorded shrunken log2 fold change for RRIRSRPPRLPRPRPRPIIEPRP .
-0.114

Please report the recorded shrunken log2 fold change for RRIRDRPPRLPRPRPRPWIYPRP .
-0.304

Please report the recorded shrunken log2 fold change for RRIRIRPPRLPRPRPRPNQVPRP .
-0.429

Please report the recorded shrunken log2 fold change for RRIRPRPPRLPRPRPRPALMPRP .
0.31

Please report the recorded shrunken log2 fold change for RRIRPRPPRLPRPRPRPKSTPRP .
-0.244

Please report the recorded shrunken log2 fold change for RRIRQRPPRLPRPRPRPFHQPRP .
-0.00804
